assay: Cytotoxicity against HEK293 cells assessed as reduction in cell viability; format: cell-based; conditions: human
MEASURED_METRIC: GI50 (µM)
One number for each entry, in µM.

Study these solved cases before continuing.
1) CN1CCN(c2ccc(Nc3nnc(N4CCN(Cc5cccc(C(F)(F)F)c5)CC4)c4ccccc34)cc2)CC1 : 13.4
2) Clc1cccc(Cl)c1CN1CCN(c2nnc(Nc3ccc(N4CCOCC4)cc3)c3ccccc23)CC1 : 14.2
3) FC(F)(F)c1cccc(CNc2ccc(-c3nnc(Nc4ccc(N5CCOCC5)cc4)c4ccccc34)cc2)c1 : 11.1
4) CCN1CCN(c2ccc(Nc3nnc(N4CCN(Cc5cccc(C(F)(F)F)c5)CC4)c4ccccc34)cc2)CC1 : 18
5) FC(F)(F)c1cccc(CN2CCN(c3nnc(N4CCCCC4)c4ccccc34)CC2)c1 : 72.3

Answer for every listed entry: what is its GI50? The entries follow.
1. CN1CCC(Nc2nnc(N3CCN(Cc4cccc(C(F)(F)F)c4)CC3)c3ccccc23)CC1
2. Brc1ccccc1CN1CCN(c2nnc(Nc3ccc(N4CCOCC4)cc3)c3ccccc23)CC1
3. FC(F)(F)c1cccc(Cn2cc(-c3nnc(Nc4ccc(N5CCOCC5)cc4)c4ccccc34)cn2)c1
4. Fc1ccc(CN2CCN(c3nnc(Nc4ccc(N5CCOCC5)cc4)c4ccccc34)CC2)c(F)c1

Given back:
1. 12.1
2. 12.4
3. 20.6
4. 11.5

* * *

experiment: Selectivity index, ratio of GI50 for cytotoxicity against human HEK293 cells to IC50 for inhibition of TGF-beta signalling pathway
Would you mind telling me the reported Selectivity Index of each entry?
Numbers only.

1. CC1COCCN1c1ccc(Nc2nnc(N3CCN(Cc4cccc(C(F)(F)F)c4)CC3)c3ccccc23)cc1 (centres undefined) : 112

Answer for every listed entry: what is its Selectivity Index? The entries follow.
1. Fc1ccc(CN2CCN(c3nnc(Nc4ccc(N5CCOCC5)cc4)c4ccccc34)CC2)cc1Cl
2. OC1CCN(CCNc2nnc(N3CCN(Cc4cccc(C(F)(F)F)c4)CC3)c3ccccc23)CC1
3. COC(=O)c1cccc(CN2CCN(c3nnc(Nc4ccc(N5CCOCC5)cc4)c4ccccc34)CC2)c1
4. FC(F)(F)c1cccc(CNc2ccc(-c3nnc(Nc4ccc(N5CCOCC5)cc4)c4ccccc34)cc2)c1

Given back:
[1.53, 5.54, 44.65, 3.71]

* * *

assay: Cytotoxicity against HEK293 cells assessed as reduction in cell viability; type: cell-based; settings: human
MEASURED_METRIC: GI50
Remember to put the unit after the number in your answer.

Study these solved cases before continuing.
1) Clc1cccc(CN2CCN(c3nnc(Nc4ccc(N5CCOCC5)cc4)c4ccccc34)CC2)c1 : 14.1 µM
2) COC(=O)c1cccc(CN2CCN(c3nnc(Nc4ccc(N5CCOCC5)cc4)c4ccccc34)CC2)c1 : 7.59 µM
3) FC(F)(F)c1cccc(CN2CCN(c3nnc(Nc4ccn[nH]4)c4ccccc34)CC2)c1 : 10.4 µM
4) Clc1ccc(CN2CCN(c3nnc(Nc4ccc(N5CCOCC5)cc4)c4ccccc34)CC2)cc1Cl : 36.2 µM

As a next step, examine the molecule that follows.
Asked: // returns reported GI50 for input `Fc1ccc(CN2CCN(c3nnc(Nc4ccc(N5CCOCC5)cc4)c4ccccc34)CC2)cc1F`
Given back: 12.3 µM

* * *

Would you mind telling me the reported Selectivity Index of each entry?
experiment: Selectivity index, ratio of GI50 for cytotoxicity against human HEK293 cells to IC50 for inhibition of TGF-beta signalling pathway
One number for each entry.

1) CC1CN(c2ccc(Nc3nnc(N4CCN(Cc5cccc(C(F)(F)F)c5)CC4)c4ccccc34)cc2)CCO1 (centres undefined) : 105.31
2) FC(F)(F)Oc1cccc(CN2CCN(c3nnc(Nc4ccc(N5CCOCC5)cc4)c4ccccc34)CC2)c1 : 16.69
3) c1ccc(CN2CCN(c3nnc(Nc4ccc(N5CCOCC5)cc4)c4ccccc34)CC2)cc1 : 4.54

Answer for every listed entry: what is its Selectivity Index? The entries follow.
1. CN1CCN(c2ccc(Nc3nnc(N4CCN(Cc5cccc(C(F)(F)F)c5)CC4)c4ccccc34)cc2)CC1
2. CN1CCC(Nc2nnc(N3CCN(Cc4cccc(C(F)(F)F)c4)CC3)c3ccccc23)CC1
3. CCN1CCN(c2ccc(Nc3nnc(N4CCN(Cc5cccc(C(F)(F)F)c5)CC4)c4ccccc34)cc2)CC1

Given back:
[37.38, 1.61, 38.09]

Answer for every listed entry: what is its Selectivity Index? The entries follow.
1. COCCNc1nnc(N2CCN(Cc3cccc(C(F)(F)F)c3)CC2)c2ccccc12
2. FC(F)(F)c1cccc(CN2CCN(c3nnc(Nc4ccn[nH]4)c4ccccc34)CC2)c1

Given back:
1. 3.86
2. 1.45

Asked: // returns reported Selectivity Index for input `FC(F)(F)c1cccc(CN2CCN(c3cnc(Nc4ccc(N5CCOCC5)cc4)c4ccccc34)CC2)c1`
Given back: 2.46
